Would you kindly list GI50 for each of these compounds?
- Test system: COLO 205
- EXPERIMENTAL_PROTOCOL: NCI tumour cell line growth inhibition, 48 h
Calls of active or inactive are those of the source. No stated cut-off is given here; in the data, active = GI50 up to about 1.1 µM and inactive = higher.

Request the reported GI50 associated with O=c1nc(Oc2c(F)c(F)c(F)c(F)c2F)ccn1C1OC(CO)C(O)C1O (centres undefined)
> 100 µM (inactive)

Could you tell me which GI50 is on file for NCCCCNCCCNC(=O)c1csc(-c2nc(CCN)sc2Cl)n1 ?
> 100 µM (inactive)

Which measured GI50 value corresponds to COc1ccc(C(=O)O[C@H]2[C@@H]3C=CO[C@@H](OC4OC(CO)C(O)C(O)C4O)[C@@H]3[C@@]3(CO)O[C@@H]23)cc1O (some centres undefined) ?
> 100 µM (inactive)

If you can, please state the reported GI50 value of COC(=O)[C@H](Cc1ccccc1)NC(=O)N(CCC#N)CCN(C(=O)N[C@@H](Cc1ccccc1)C(=O)OC)c1ccccc1 .
25 µM (inactive)

What value of GI50 has been recorded for this entry: CCOC(=O)/C(=C\c1ccc(N(C)C)cc1)S(=O)(=O)C(F)(F)C(F)(F)C(F)(F)C(F)(F)F
> 100 µM (inactive)

What measured GI50 goes with C/C(CC(=O)Nc1cc(Cl)c(Cl)cc1Cl)=N\NS(=O)(=O)c1ccc(C)cc1 ?
26.8 µM (inactive)

State the recorded GI50 for this entry: CCOc1ccc(Nc2nc(C)c(C(=O)/C=C/c3ccc(Cl)cc3Cl)s2)cc1
17.8 µM (inactive)

Please report the recorded GI50 for C[C@H](CO)C1=CC(C#C[Si](C)(C)C)N(C(=O)Oc2ccccc2)c2ccccc21 (some centres undefined) .
5.6 µM (inactive)

What value of GI50 has been reported for the following compound? CCOC(=O)/C(=N\OC)C(O)C(F)(F)F (centres undefined)
> 100 µM (inactive)

----------
Exercise: state measured GI50 for each of the molecules provided.
- Test system: HCT-15
Write the answer as a number in µM, unit excluded.

I would be grateful if you could share the reported GI50 for Oc1ccc(Br)cc1/C=N/c1c(NC2CCCCC2)oc2ccc(Br)cc12 .
25.1

Which GI50 reading was recorded for the molecule COC(=O)C1=C(C)NC(CF)=C(C(=O)OC)C1c1cccc2c(=O)c3ccccc3oc12 (stereo not given) ?
4.79

What value of GI50 has been recorded for this entry: O=c1n(-c2ccccc2)c(=O)n2c(-c3ccccc3)c(-c3ccccc3)n12
82.4

Quick check: GI50 of CCOP(=O)(C[S+](C)[O-])O[C@@H]1C[C@H](C)CC[C@H]1C(C)C (stereo not given in full) ?
2.71

What does the record list as GI50 for O=C1C=CC(=O)c2c1ccc1c3ccccc3n(-c3ccccn3)c21 ?
19.1

----------
- System: SK-OV-3
- EXPERIMENTAL_PROTOCOL: NCI tumour cell line growth inhibition, 48 h
The source made the active and inactive calls. Cut-off read from the data, not from the text of the source: active = GI50 up to about 1.1 µM and inactive = higher. Non-standard residues stand in square brackets, D forms with d. Residues, ends and D or L forms follow the SMILES beside them. ξ: configuration not given here. *: point of attachment. NMeF = CN[C@@H](Cc1ccccc1)C(=O)O; NMeV = CN[C@H](C(=O)O)C(C)C; ξNMeV = CNC(C(=O)O)C(C)C; Boc = CC(C)(C)OC(=O)*; OBn = c1ccc(CO*)cc1
Thanks in advance; please answer with one of these: active, inactive

Per the assay record, what outcome was assigned to C/C(=N\N=C(/S)N1CC2CCC(CC2)C1)c1ccncn1 ?
active

Outcome logged for O1C2C1C1OC1C1OC1C1OC21 (stereo not given) in this assay:
inactive

What call does the record list for O=S(=O)(CC#CCS(=O)(=O)c1ccccc1)c1ccccc1 ?
inactive

Record lookup: outcome of this test for CCOP(=O)(C[S+](C)[O-])O[C@@H]1C[C@H](C)CC[C@H]1C(C)C (stereo not given in full) ?
inactive

I'd appreciate the recorded outcome for COC[C@@H]1Cc2cc(OC)c3c(c2[C@H](c2ccc(OC)c(OC)c2)[C@H]1COC)OCO3 from this test.
inactive

Dear all, I need the recorded test outcome for Cc1cc(=O)oc2cc(O)ccc12 , thank you.
inactive

Assay outcome for CC(C)C(C(=O)N(C)[C@H](C(=O)N1CCC[C@H]1C(=O)N(C)[C@@H](Cc1ccccc1)C(=O)OCc1ccccc1)C(C)C)N(C)C(=O)[C@@H](NC(=O)OC(C)(C)C)C(C)C (stereo not given in full) (Boc-V[ξNMeV][NMeV]P[NMeF]-OBn) : what was it?
inactive

Name the outcome recorded for COc1ccc(C2S/C(=C\c3ccc(O)cc3)C(=O)N2NC(=O)Cc2ccccc2)cc1 (stereo not given) in the assay.
inactive

Recorded call for O=C1N/C(=N\C2CCCCC2)C2(CCN(CCCC3(c4ccc(F)cc4)OCCO3)CC2)N1c1ccccc1 ?
inactive

What did the test return for Cc1cc(C)c2cc(N)c(Cl)nc2n1 ?
inactive

Name the outcome recorded for CCOC(=O)CCc1cccc2c1oc1c(CCNC(=O)OCC3c4ccccc4-c4ccccc43)cccc12 in the assay.
inactive

What classification did COc1cc(C2C3=C(COC3=O)Oc3cc4c(cc32)OCO4)cc(OC)c1OC (stereo not given) end up with in this test?
active

Write down the call the test reported for this compound. Item: COC(=O)c1cc2c(cc1O)[C@@H](NC(C)=O)CCc1cc(OC)c(OC)c(OC)c1-2
active

Hey, what did the test say about CCC/C(Cl)=N\OC(=O)Nc1ccc(F)cc1 ?
inactive

I would be grateful if you could indicate the recorded call for CC(C)(C)OC(=O)NCCc1cccc2c1oc1c(CCC(=O)O)cccc12 .
inactive

So what was the verdict on CC(=O)N/C(=C\c1ccccc1/C=C(\NC(C)=O)c1nc2cc(C)c(C)cc2[nH]1)c1nc2cc(C)c(C)cc2[nH]1 in this test?
inactive

Dear colleague, could you share the recorded outcome for Cc1ccc(-c2cs/c(=N\c3c(C)n(C)n(-c4ccccc4)c3=O)n2CCO)cc1 when you have a moment?
inactive

Call for entry O=C1OC(=O)C2C1C1C(c3ccccc3)=C(c3ccccc3)C2(O)C2C(=O)OC(=O)C12 (stereo not given) :
inactive

Each compound tested received a call. Report the one for COc1ccc(Cc2c(N)[nH]c(=O)n(C)c2=O)cc1 .
inactive

Lab log entry: C[N+](C)(C)c1ncnc2c1ncn2C1CCCCO1 (stereo not given) — outcome as called in the assay?
inactive

----------
Record: GI50 reported on HCT-15.

Short answer please: GI50, HCT-15, entry O=C(OCc1ccccc1)N1c2cc([N+](=O)[O-])ccc2C(=O)N2CCC[C@H]2C1O (stereo partly specified)
> 100 µM

Please state recorded GI50 (tested on HCT-15) of CCOC(=O)/C=C(/C=C\COC1CCCCO1)c1ccccc1 (stereo unspecified)
27.4 µM

So what GI50 did COC1=C(OC)C(=O)c2cc(C)c(=O)c(C)cc2C1=O get with HCT-15?
21.3 µM

Under HCT-15: GI50 value of Oc1nc2ccccc2c(O)c1Cc1ccccc1 ?
> 100 µM

HCT-15 / GI50 / CC(=O)Nc1ccc2c3c(cc(O)c2c1)N(C(=O)CCCC(=O)N1CC(CCl)c2c1cc(O)c1cc(NC(C)=O)ccc21)CC3CCl (stereo unspecified) : value?
0.0773 µM

Reported GI50 for HCT-15, given Cc1cc(=O)oc2cc(O)ccc12 [HYMECROMONE] ?
> 100 µM

Lab request: please report GI50 under test system HCT-15 for COC(=O)C1CC(C=O)=C(SC)N1 (stereo unspecified)
> 50 µM

Please state recorded GI50 (tested on HCT-15) of CC(=O)NCCc1c(-c2[nH]c3ccccc3c2CCNC(C)=O)[nH]c2ccccc12
> 100 µM

So what GI50 did N#C/C(=C/c1ccsc1)C(=O)c1ccccc1 get with HCT-15?
> 100 µM

Report GI50 for COc1ccc(C(=O)C#Cc2cn(C3CC(O)C(CO)O3)c(=O)[nH]c2=O)cc1 (stereo unspecified) tested on HCT-15.
> 100 µM

Which measured GI50 belongs to N#Cc1c(-c2ccc(Cl)cc2)c(-c2ccc(Cl)cc2)nn(CCOC(=O)CCC(=O)O)c1=O , tested on HCT-15?
0.532 µM

----------
- Test system: PC-3
- EXPERIMENTAL_PROTOCOL: NCI tumour cell line growth inhibition, 48 h
Activity calls are given as the source filed them. No stated cut-off is given here; in the data, active = GI50 up to about 1.1 µM and inactive = higher.
Return exactly one item of active, inactive

Outcome? COc1ccc(Cc2c(N)[nH]c(=O)n(C)c2=O)cc1
inactive

Per the records of this test, what outcome belongs to CN1C(=O)C(C(N)=O)C2CC1(C)Oc1ccccc12 (stereo not drawn) ?
inactive

Fill in: this test's call for O=[N+]([O-])c1cc2ccc(N(CCO)CCO)nc2nc1N(CCO)CCO is ___
inactive

Which outcome was entered for the molecule C[Si](C)(C)CNC(=O)OCc1ccccc1 in this test?
inactive

Check the results log: what was the call for Nc1cccc(CCN2CCN(CCCc3ccccc3)CC2)c1 ?
inactive

Please state the recorded outcome for this molecule: COc1ccc2oc(=N)c(C(N)=O)cc2c1
inactive

Just curious, what result did CCC1=CC2Cc3nc4cc(Cl)ccc4c(N)c3C(C1)C2 (stereo not drawn) get here?
inactive

Each molecule tested received a call. Report the one for CCOC(=O)c1ccc(Nc2cnc3ccc(C(F)(F)F)cc3n2)cc1 .
inactive

Fill in: this test's call for CC1=C(Cl)C[C@@H](/C(C)=C\Cl)O[C@@]1(O)C(Br)Br is ___
inactive

Hello, I am checking results. What call was entered for CC1(CCC(=O)OC2CCCCC2)OCCO1 ?
inactive

Please share the test call associated with CN(C)C1C(=O)C(C(N)=O)=C(O)C2(O)C(O)=C3C(=O)c4c(O)cccc4C(C)(O)C3CC12 (stereo not drawn) .
inactive

Please indicate how the test categorized N#C/C(N)=C(C#N)/N=C/N .
inactive

What is the recorded call for this molecule in the test? Oc1ccc(-c2nc3ccc(Cl)cc3s2)cc1
inactive

Could you check what this test reported for Cc1cc2oc(=N)c(C#N)c(C)c2cc1C ?
inactive

// param item: CC[C@@]1(O)C(=O)OCc2c1cc1n(c2=O)Cc2c-1nc1ccccc1c2/C=N\NC(=O)C(N)CCSC (stereo partly drawn) ; yields the recorded call
active

Short answer needed: outcome of this test for COc1c(Cl)c(=O)oc2ccc(Cl)cc12 ?
inactive

How was Clc1cccc(Cl)c1C1ON=C(c2ccccc2)N1C12CC3CC(CC(C3)C1)C2 (stereo not drawn) classified in this test?
inactive

Could you kindly confirm the outcome this assay logged for CCOC(=O)/C=C(/C=C\COC1CCCCO1)c1ccccc1 (stereo not drawn) ?
inactive

Query: recorded result category for C[Si](C)(OCCS(=O)(=O)O)OC(=C1S(=O)(=O)OCCOS1(=O)=O)c1cccc2ccccc12 in this test
inactive

// param item: Nc1nc2c(ncn2CC2CCC(CO)C2)c(=O)[nH]1 (stereo not drawn) ; yields the recorded call
inactive

Outcome? COc1ccc(CC2c3cc(OC)c(OC)c(OC)c3CC[N+]2(C)C)cc1Oc1ccc(CC2c3cc4c(c(OC)c3CCN2C)OCO4)cc1 (stereo not drawn)
inactive

What is the recorded call for this molecule in the test? O=C1c2cc([N+](=O)[O-])cnc2S(=O)(=O)N1c1ccc(Oc2ccccc2)cc1
inactive

Recorded test call requested for CCCCn1cnc2c(c(CC#N)nn2-c2ccccc2)c1=N
inactive
